# self-splicing fitness (ln) per record follows
- ASSAY_SUMMARY: self-splicing fitness, log relative to wild type (ln ratio); higher = more splicing; Tetrahymena group I intron in knt gene, E. coli kanamycin selection, DiMSum; sequences stand for … in CUCUCU…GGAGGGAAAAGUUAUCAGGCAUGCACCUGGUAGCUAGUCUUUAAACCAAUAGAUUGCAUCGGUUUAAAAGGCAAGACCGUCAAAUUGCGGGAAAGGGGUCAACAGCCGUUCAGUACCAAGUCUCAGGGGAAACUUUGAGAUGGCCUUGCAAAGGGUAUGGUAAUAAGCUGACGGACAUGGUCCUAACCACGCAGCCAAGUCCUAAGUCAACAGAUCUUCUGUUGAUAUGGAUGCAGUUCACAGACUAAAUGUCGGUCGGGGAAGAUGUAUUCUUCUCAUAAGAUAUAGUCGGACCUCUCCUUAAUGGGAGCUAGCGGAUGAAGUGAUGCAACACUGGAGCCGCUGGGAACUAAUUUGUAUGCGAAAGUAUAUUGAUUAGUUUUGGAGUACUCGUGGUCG;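 also: selection with 25 µg/mL kanamycin versus none on LB agar overnight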
- ASSAY_CONTEXT: 37 °C
Enter a number only.

Consider the worked cases shown below.
[
  {
    "BIOPOLYMER_SEQUENCE": "CGAAAGCAAUAUUACGGCCG",
    "self-splicing fitness (ln)": -0.462
  },
  {
    "BIOPOLYMER_SEQUENCE": "UCUAAGCAAUAUUACGACAC",
    "self-splicing fitness (ln)": -2.82
  },
  {
    "BIOPOLYMER_SEQUENCE": "GCUCAGCAAUAUUACGCAUA",
    "self-splicing fitness (ln)": 0.283
  },
  {
    "BIOPOLYMER_SEQUENCE": "GAACAGCAAUAUUACGGAGC",
    "self-splicing fitness (ln)": -1.13
  },
  {
    "BIOPOLYMER_SEQUENCE": "GGCUAGCAAUAUUACGCAAG",
    "self-splicing fitness (ln)": -0.63
  }
]

Specify measured self-splicing fitness (ln) for `UCAGAGCAAUAUUACGCGAU` .
-2.08

Specify measured self-splicing fitness (ln) for `AUCUAGCAAUAUUACGUGGU` .
-2.85

Specify measured self-splicing fitness (ln) for `GCUAAGCAAUAUUACGCUCC` .
-1.07

Specify measured self-splicing fitness (ln) for `UGGUAGCAAUAUUACGCGUC` .
-2.52

###

- ASSAY_SUMMARY: self-splicing fitness, log relative to wild type (ln ratio); higher = more splicing; Tetrahymena group I intron in knt gene, E. coli kanamycin selection, DiMSum; sequences stand for … in CUCUCU…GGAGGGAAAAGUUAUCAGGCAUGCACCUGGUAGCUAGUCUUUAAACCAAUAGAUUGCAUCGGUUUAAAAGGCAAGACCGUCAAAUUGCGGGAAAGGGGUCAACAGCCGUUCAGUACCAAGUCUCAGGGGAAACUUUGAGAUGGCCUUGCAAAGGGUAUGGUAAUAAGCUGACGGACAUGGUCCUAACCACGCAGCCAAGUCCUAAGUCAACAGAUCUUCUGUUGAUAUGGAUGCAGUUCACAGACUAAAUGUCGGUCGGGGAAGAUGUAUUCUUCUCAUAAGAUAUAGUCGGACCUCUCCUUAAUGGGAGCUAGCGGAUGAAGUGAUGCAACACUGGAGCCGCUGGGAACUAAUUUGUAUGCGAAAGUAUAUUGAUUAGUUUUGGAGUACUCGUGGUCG
- ASSAY_CONTEXT: 37 °C
# self-splicing fitness (ln) per record follows
Enter a number only.

Specify measured self-splicing fitness (ln) for `AACUAGCAAUAUUACGGGUC` .
-1.78

Specify measured self-splicing fitness (ln) for `GACAAGCAAUAUUACGGCGG` .
-1.87

Specify measured self-splicing fitness (ln) for `UACCAGCAAUAUUACGGACA` .
0.423

Specify measured self-splicing fitness (ln) for `UACGAGCAAUAUUACGGUUG` .
-2.11

Origin of the recorded values: the supplement of paper PMC7877785
